src = PubChem BioAssay (NCI)

Test system: COLO 205 colon
Test Description: NCI-60 one-dose screen, 48 h
Applied Conditions: 10 µM unless noted
Method: Cells are grown in 96 well plates and exposed to the test compound for 48 hours. Compounds are tested at a single concentration, which is 10^-5 M for most compounds. The reported endpoint is percent growth (GI% or GIPRCNT), where numbers from 0 - 100% represent growth inhibition, and numbers from -100% - 0 represent cell death. For example, a value of 40 represents 60% growth inhibition. A value of 0 means no net growth occurred over the course of the experiment. […]
About 83,000 compounds went through this panel and 20% of them were active in at least one assay; those are over-represented in the sample as a whole. Activity calls are given as the source filed them. How the source made its calls: active means growth percent below 10; inactive means the rest.
Labels: t (active), f (inactive)

• O=C1Nc2c(ccc(Cl)c2Cl)/C1=C/c1cc(Br)c(O)c(Br)c1 = f
• O=C(/C=C\c1cccc([N+](=O)[O-])c1)c1ccccc1 = t
• CC/C(Cc1ccccc1)=C(/c1ccc(O)cc1)c1ccc(OCCN2CCCC2)cc1 = t
• COC1/C=C\OC2(C)Oc3c(C)c(O)c4c(O)c(c(CN(C)CCO)c(O)c4c3C2=O)NC(=O)/C(C)=C\C=C/C(C)C(O)C(C)C(O)C(C)C(OC(C)=O)C1C (centres undefined) = f

----------
System: SF-539 CNS
Test Description: NCI-60 one-dose screen, 48 h
Applied Conditions: 10 µM unless noted
Compounds without any hit were thinned out: in the full panel of roughly 83,000, 20% have a hit. Activity calls are given as the source filed them. The calls were made as follows: active = growth percent below 10; inactive = the rest.
Labels: active, inactive

- O=c1c2c3c(sc2n2c(CCl)nnc2n1Cc1ccccc1)CCCC3: active
- O=C(O)c1cccc2c1-c1ccccc1C2=O: inactive
- CC(C)[C@@H]1CC[C@]2(C(=O)NCCCCN=C(N)N)CC[C@]3(C)[C@H](CC[C@@H]4[C@@]5(C)CCC(=O)C(C)(C)[C@@H]5CC[C@]43C)[C@@H]12: inactive
- Cc1ccc(S(=O)(=O)N(CCc2ccc(Cl)cc2)S(=O)(=O)c2ccc(C)cc2)cc1: inactive
- CC#CC#Cc1cccc(=O)o1: inactive
- c1ccc2c(Nc3cccc4ccccc34)cccc2c1: inactive
- COc1ccc(Cl)cc1Nc1nc(C(F)(F)F)ccc1C(=O)N/N=C/c1cccnc1: inactive
- CCOC(=O)c1cnc2ccc(OC)cc2c1Nc1cccc(S(=O)(=O)NC)c1: inactive
- COc1ccc(-c2nc(Nc3cc(C)[nH]n3)c3ccccc3n2)cc1: inactive
- CCc1ccccc1NC(=O)c1sc2nc3c(cc2c1N)C(=O)CCC3: active
- Cc1sc2nc3[nH]/c(=C\c4ccc(Cl)cc4)c(=O)n3c(=O)c2c1C: inactive
- CCCCNP1(NCCCC)=NP(NCCCC)(NCCCC)=NP(NCCCC)(NCCCC)=NP(NCCCC)(NCCCC)=N1: inactive
- Cc1cc(-c2nc3ccccc3s2)ccc1NC(=O)COc1ccc(Cl)cc1: inactive
- CSc1nc2sc3c(c2c(=O)n1-c1ccc(C(C)C)cc1)CCC(=O)C3: active
- CC(C)CC(CC1=CCC2CC1C2(C)C)C1=C(O)C(C)(C)C(=O)C(C)(C)C1=O (stereo not drawn): inactive
- Nc1nc(-c2ccc(F)cc2)cc(-c2cnn(-c3ccccc3)n2)n1: inactive
- c1ccc(CSc2ncnc3nc[nH]c23)nc1: inactive
- CCOC(=O)C(=Cc1ccccc1F)C(=O)OCC: inactive
- NC1=CSC2=N/C(=C\c3ccc(Cl)cc3)C(=O)N12: inactive
- COc1cc2c(c(OC)c1OC)-c1ccc(N=NC(N)=S)c(=O)cc1[C@@H](NC(C)=O)CC2: active
- COC1C/C(=N\O)C2OC(c3ccccc3)OCC2O1 (stereo not drawn): inactive
- Nc1nc(SCc2ccccc2)c2ncn(C3CCCC3)c2n1: inactive
- Cc1cc(=O)oc2cc(Oc3nc(-c4ccc(Cl)cc4)cn4c(-c5ccc(Cl)cc5)cnc34)ccc12: inactive
- C(=N\Nc1ccccn1)/c1ccccn1: active
- Cc1ccc(/C=C2\Oc3cc(OCC(=O)c4ccc(Cl)cc4)ccc3C2=O)cc1: inactive
- O=C(/C=C\c1ccc2ccccc2n1)c1cc(Cl)ccc1O: inactive
- Cc1ccc(-c2nc(/C=N/Nc3cc(C)nc4ccc(Br)cc34)c(C)o2)cc1: inactive
- CN(C)CCOc1ccc(-c2nc3ccc(-c4nc5ccc(N6CCN(C)CC6)cc5[nH]4)cc3[nH]2)cc1: inactive
- S=c1[nH]nc(CSc2ncnc3c2c(-c2ccccc2)cn3-c2ccc(Cl)cc2)o1: inactive
- O=C(Nc1ccc(F)cc1)Nc1ccc(CCO)cc1: inactive
- CCN(CC)CC(C)Nc1ccc([N+](=O)[O-])c2sc3ccccc3c(=O)c12 (stereo not drawn): inactive
- Cc1cc(Nc2nc(-c3cccnc3)nc3ccccc23)n[nH]1: inactive
- CSc1nc(NCCO)c(C#N)c(-c2cccc(N)c2)n1: inactive
